Origin of measurements: PubChem BioAssay (NCI)

Measured GI50 values are reported for all entries that follow.
System: HCT-116 colon
Assay: NCI tumour cell line growth inhibition, 48 h
MEASURED_ENDPOINT: GI50

CCN(CC)Cc1cc(Nc2ccnc3ccc(OC)cc23)ccc1O; 2620 nM
O=C(NNC1=NS(=O)(=O)c2ccccc2N1c1ccccc1)c1cnccn1; > 100000 nM
Cc1cc2c(C(C)C)c(O)c(O)c(/C=N/O)c2c(O)c1-c1c(C)cc2c(C(C)C)c(O)c(O)c(/C=N/O)c2c1O; 2410 nM

* * *

System: OVCAR-3 ovarian
Assay: NCI tumour cell line growth inhibition, 48 h
MEASURED_ENDPOINT: TGI

Cc1ncnc2c1ccn2[C@@H]1C[C@H](Oc2cc(C(F)F)c(F)c3c2CNCC3)[C@@H](O)[C@H]1O; > 100 µM
COc1cccc(N2C(=N)/C(=C3\Nc4ccccc4S3)CC2=O)c1; > 100 µM
CCN1CCCCCCCCCC(=N/O)/C(=N\O)C1; > 100 µM
O=C(CC(O)(C(F)(F)F)C(F)(F)F)c1cccs1; > 10 µM
O=c1c2ccccc2nc(-c2ccccc2)n1/N=C/c1ccccc1[N+](=O)[O-]; > 100 µM
S=c1[nH]nc(COc2ccc(Cl)cc2)n1-c1ccccc1; > 100 µM

* * *

Collected TGI values appear next to each entry.
System: COLO 205 colon
Test: NCI tumour cell line growth inhibition, 48 h
MEASURED_ENDPOINT: TGI

OC(Cc1cnnc2ccccc12)C(Cl)(Cl)Cl (stereo not drawn); > 10 µM
CCN1C[C@@H](C)n2c(c(O)c3c(=O)n(Cc4ccc(F)c(Cl)c4)nc(C(=O)NC)c32)C1=O; 40.3 µM
NC(=O)NC(=O)Nc1ccc(Br)cc1; > 28.8 µM

* * *

Test system: SNB-19 CNS
Assay: NCI tumour cell line growth inhibition, 48 h
Recorded TGI, one value per entry.
MEASURED_ENDPOINT: TGI

CC(=O)Nn1c(Cc2ccc(Cl)cc2)nn(C)c1=O; > 100 µM
C/C(=N\O)C1CC(CC(=O)O)C1(C)C (stereo not given); > 100 µM
CN1CCN(CCCCCOc2cc(O)c3c(=O)cc(-c4ccccc4)oc3c2)CC1; 22.3 µM
c1ccc(-c2sc(-c3ccccc3)c3c2C(c2ccccc2)c2c(-c4ccccc4)sc(-c4ccccc4)c2C3c2ccccc2)cc1 (stereo not given); > 100 µM
Oc1ccc(/C=N/NC(=S)Nc2ccccc2)nc1; > 100 µM

* * *

Tested on: ACHN renal
Experiment: NCI tumour cell line growth inhibition, 48 h
Entries annotated with measured TGI
MEASURED_ENDPOINT: TGI

O=C(N[C@H](CO)[C@H](O)c1ccc([N+](=O)[O-])cc1)C(Cl)Cl; > 100 µM
Cc1ccc(/C=C(/C#N)n2nnc3cccc(F)c32)cc1; 4.46 µM
COC(=O)C1=C(C)NC(CF)=C(C(=O)OC)C1c1cccc2c(=O)c3ccccc3oc12 (centres undefined); > 100 µM
COc1ccc(C[C@@H]2OC3(C=CC(=O)CC3Sc3ccccc3)O[C@H]2Cc2ccc(OC)cc2)cc1 (some centres undefined); 2.81 µM

* * *

Test system: NCI/ADR-RES ovarian
Test: NCI tumour cell line growth inhibition, 48 h
MEASURED_ENDPOINT: TGI

O=[N+]([O-])c1ccccc1S(=O)(=O)c1cccc2c1NCCC2; > 100 µM
CCOC(=O)CCCc1cc(=O)c2c(C)c3[nH]c4ccc(Cl)cc4c3c(C)c2[nH]1; 66.2 µM
CCc1nc(N)nc(N)c1-c1ccc(N2CCNCC2)c([N+](=O)[O-])c1; > 100 µM
CCc1n[nH]c(=O)n1-n1c(C)ccc1C; > 100 µM
COC(=O)c1ccccc1C1CN=NC12Cc1cc3c(cc1C2=O)CCC3 (stereo not drawn); > 100 µM
CC=C/C=C/[C@@H]1O[C@](O)([C@H](CC)C(=O)NC/C=C/C=C(\C)[C@@H](OC)[C@@H](C)[C@@H]2O[C@H](/C=C/C=C/C=C(\C)C(=O)c3c(O)cc[nH]c3=O)[C@H](O)[C@@H]2O)[C@H](O)[C@H](O)C1(C)C; > 100 µM
O=S1(=O)C[C@H](NCc2ccccc2)[C@H](NCc2ccccc2)C1; > 100 µM
COc1cc2c3c(n(CCCNCCCCN)c(=O)c2cc1OC)-c1cc2c(cc1C3=O)OCO2; > 90.8 µM
C=CCc1cc(O)ccc1O; > 100 µM
COc1ccc(/C=N/NS(=O)(=O)c2ccc(/C=C3\NC(=O)NC3=O)cc2)cc1; > 100 µM
O=[N+]([O-])c1ccc(C2Nn3c(nnc3-c3cccc([N+](=O)[O-])c3)S2)cc1 (stereo not drawn); > 100 µM
C/C=C(/C)C(=O)OC1C=C(CO)C(=O)C(OC(=O)C2(C)OC2C)C1C(C)C (stereo not drawn); 17.4 µM
O=C(NCCc1ccccn1)c1ccc2cc(C(=O)N3CC(CCl)c4ccc([N+](=O)[O-])cc43)[nH]c2c1 (stereo not drawn); > 100 µM
COc1ccc(NC(=O)CSc2nc(C)nc3c2sc(=S)n3-c2ccccc2)cc1; > 10 µM
CC(=O)CCC[C@@H](C)[C@@H]1O[C@H]([C@@]2(C)CCC(=O)O2)CC2[C@H]1OC(=O)C21CC1 (stereo partly drawn); > 100 µM
Cc1c(Br)c(Br)c2c3c1nc(N1CCNCC1)n3CCC2; 3.82 µM
C=C1C(=O)O[C@H]2C(=O)[C@H](C)CCC/C(C)=C/CC[C@@]3(C)O[C@@H]3C[C@@H]12; 40.5 µM
N#C/C(=C\c1ccc(O)c(O)c1)C(=O)NCc1cccc(C(F)(F)F)c1; 34.6 µM
Oc1c(Cl)cc(Cl)c(Cl)c1Cc1c(O)c(Cl)cc(Cl)c1Cl; 10.8 µM
C/C(=N\O)C1CC(CC(=O)O)C1(C)C (stereo not drawn); > 100 µM
N#Cc1ncc(-c2ccc(C(F)(F)F)cc2)c(NC2CCCCCC2)n1; > 100 µM
CC(=O)Nc1ccc2cc(C#N)c(=O)[nH]c2n1; > 100 µM
Cn1ccc(S(=O)(=O)N2CCC[C@H](Nc3nccc(-c4c(-c5cccc(O)c5)nc5occn45)n3)C2)n1; > 100 µM
CSc1ccccc1NC1=NCCO1; > 100 µM
CC1=C(C)C2(C#N)C(=O)N3C(=NC(c4ccco4)NC3c3ccco3)C2(C#N)C(c2ccco2)N1 (stereo not drawn); > 100 µM
CCOc1cc(CC[N+](C)(C)C)c2c(ccc3ccc(OC)c(OC)c32)c1OC; > 100 µM
Oc1ccc(/C=N/NC(=S)Nc2ccccc2)nc1; > 100 µM
O=C(CC(O)(C(F)(F)F)C(F)(F)F)c1cccs1; > 10 µM

* * *

List of TGI values.
System: HCT-15 colon
Experiment: NCI tumour cell line growth inhibition, 48 h
MEASURED_ENDPOINT: TGI

O=C(O[C@H](/C=C/c1ccccc1)P1(=O)N(Cc2ccccc2)[C@H]2CCCC[C@@H]2N1Cc1ccccc1)c1ccccc1; > 100 µM
CC(C)(C)OC(=O)NC(Cc1ccc(OC(C)(C)C)cc1)C(=O)N[C@H]1CC[C@H](C(=O)O)C1 (stereo partly drawn); > 100 µM
Cc1c(Br)c(Br)c2c3c1nc(N1CCNCC1)n3CCC2; 3.33 µM
CCCN(CCCC(NC(C)=O)C(=O)NCc1ccccc1)C(=O)N(C)N=O (stereo not drawn); > 100 µM
c1ccc(C2=Nc3ccccc3N3CNN=C23)cc1; > 100 µM
COc1ccc(CCn2ccc(C)n2)c(OC)c1; > 100 µM
C#CCNCC(=O)O; > 100 µM
O=C1CCC2(c3ccccc3)OCC([C@@H](O)c3ccccc3)N12 (stereo partly drawn); > 100 µM
Cc1cc(C)c([O-])c(-[n+]2c(-c3ccccc3)cc(-c3ccccc3)cc2-c2ccccc2)c1; 25.4 µM
CC1CCC2C(C)C(OC(=O)CCC(=O)O)OC3OC4(C)CCC1C32OO4 (stereo not drawn); > 100 µM
CCN1C[C@@H](C)n2c(c(O)c3c(=O)n(Cc4ccc(F)c(Cl)c4)nc(C(=O)NC)c32)C1=O; 8.28 µM
O=C(O)c1cc(-c2ccc(-c3ccccc3)cc2)nc2cc3ccccc3cc12; > 100 µM
CC=C/C=C/[C@@H]1O[C@](O)([C@H](CC)C(=O)NC/C=C/C=C(\C)[C@@H](OC)[C@@H](C)[C@@H]2O[C@H](/C=C/C=C/C=C(\C)C(=O)c3c(O)cc[nH]c3=O)[C@H](O)[C@@H]2O)[C@H](O)[C@H](O)C1(C)C; > 100 µM

* * *

System: HT29 colon
Test: NCI tumour cell line growth inhibition, 48 h; in the data active = GI50 below about 0.43 µM; inactive = the rest
Outcomes: TRUE = active, FALSE = inactive

COC(=O)COc1ccccc1/C=C1/N=C(c2ccccc2)N(c2c(C)n(C)n(-c3ccccc3)c2=O)C1=O; FALSE
CCOC(=O)C(Cc1ccccc1)n1c(O)c(/C=N/c2ncc(Cc3ccc(Cl)cc3Cl)s2)sc1=S (stereo not given); FALSE
Oc1c(Cl)cc(Cl)c(Cl)c1Cc1c(O)c(Cl)cc(Cl)c1Cl; FALSE
CN1CCN(CCCCCOc2cc(O)c3c(=O)cc(-c4ccccc4)oc3c2)CC1; FALSE
CCNCCS(=O)(=O)NC[C@@]1(c2ccccc2)SC(NC(=O)C(C)(C)C)=NN1C(=O)C(C)(C)C; TRUE
